Test: Phase 1 study (NCT04249843): plasma pharmacokinetics of Compound A
Type: in vivo, human
Details: human, plasma, oral, 60 mg, C1D1, patient 101-011 (excluded from C1D1 summary statistics, AQL samples); read-out: AUC8 h
Reported endpoint: AUC(0-t) (ng·h/mL)
Numbers only, in ng·h/mL.

Q) Requested field: AUC(0-t). Item: O=C1CCc2c(Oc3ccc4c(c3)[C@H]3[C@H](NC(=O)Nc5cc(F)c(F)cc5F)[C@H]3O4)ccnc2N1
A) 5630

---

Experiment: Phase 1 study (NCT04249843): plasma pharmacokinetics of Compound A
Type: in vivo, human
Details: human, plasma, oral, 5 mg, C1D1, Mean (%CV); read-out: AUC8 h
Reported endpoint: AUC(0-t) (µg·h/mL)
Give bare numbers, in µg·h/mL.

Q) Reported AUC(0-t) for O=C1CCc2c(Oc3ccc4c(c3)[C@H]3[C@H](NC(=O)Nc5cc(F)c(F)cc5F)[C@H]3O4)ccnc2N1 : what is it?
A) 0.414

---

Experiment: Phase 1 study (NCT04249843): plasma pharmacokinetics of Compound A
Format: in vivo, human
Settings: human, plasma, oral, 40 mg, C1D1, patient 201-010; read-out: AUC8 h
Protocol: For a single-dose profile: AUC from zero to the last measurable concentration (AUClast), AUC from zero to infinity (AUC0-∞), maximum observed plasma concentration (Cmax), time to maximum observed plasma concentration (tmax), t1/2, apparent clearance, and apparent volume of distribution (Vz/F). In addition, AUClast,ss, AUCtau, Cmax,ss, and tmax, ss were calculated at steady state. […] Pharmacokinetic data were analyzed using the PK Population. […]
Reported endpoint: AUC(0-t) (µg·h/mL)
Answers are plain numbers, in µg·h/mL.

Q) For the compound shown here, O=C1CCc2c(Oc3ccc4c(c3)[C@H]3[C@H](NC(=O)Nc5cc(F)c(F)cc5F)[C@H]3O4)ccnc2N1 [Compound A] , give the reported AUC(0-t).
A) 2.47

---

Assay: Phase 1 study (NCT04249843): plasma pharmacokinetics of Compound A
Format: in vivo, human
Details: human, plasma, oral, 40 mg, 40 mg QD, C2D1, patient 202-012
Reported endpoint: Tmax (h)
One number for each entry, in h.

Q) I would be grateful if you could share the reported Tmax for O=C1CCc2c(Oc3ccc4c(c3)[C@H]3[C@H](NC(=O)Nc5cc(F)c(F)cc5F)[C@H]3O4)ccnc2N1 .
A) 3
